- test.target: recombinant human AMPK complex, containing α2β1γ2 (Homo sapiens, UniProt P54646+Q9Y478)
- Construct: hsAMPKα2-552-His, hsAMPKβ1-2-270 and hsAMPKγ-2-569 respectively; hsAMPKβ1-2-270; hsAMPKγ-2-569; His (C)
- Sequence (P54646 2-552): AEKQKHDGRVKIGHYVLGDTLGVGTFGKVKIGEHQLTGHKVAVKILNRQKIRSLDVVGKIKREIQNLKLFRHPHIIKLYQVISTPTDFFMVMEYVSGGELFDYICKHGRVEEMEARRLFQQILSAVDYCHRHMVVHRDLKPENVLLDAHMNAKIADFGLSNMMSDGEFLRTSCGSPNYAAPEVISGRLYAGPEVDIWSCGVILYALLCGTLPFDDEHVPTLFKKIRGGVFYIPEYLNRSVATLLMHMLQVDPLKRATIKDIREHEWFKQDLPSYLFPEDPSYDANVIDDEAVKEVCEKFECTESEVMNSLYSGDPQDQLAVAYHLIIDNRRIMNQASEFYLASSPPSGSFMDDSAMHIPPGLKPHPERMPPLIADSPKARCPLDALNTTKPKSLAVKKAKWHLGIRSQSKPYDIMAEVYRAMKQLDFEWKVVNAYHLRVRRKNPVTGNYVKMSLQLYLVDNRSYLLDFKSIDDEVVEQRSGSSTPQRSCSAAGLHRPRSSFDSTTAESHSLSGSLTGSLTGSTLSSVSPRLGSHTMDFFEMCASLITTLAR
- Sequence (Q9Y478 2-270): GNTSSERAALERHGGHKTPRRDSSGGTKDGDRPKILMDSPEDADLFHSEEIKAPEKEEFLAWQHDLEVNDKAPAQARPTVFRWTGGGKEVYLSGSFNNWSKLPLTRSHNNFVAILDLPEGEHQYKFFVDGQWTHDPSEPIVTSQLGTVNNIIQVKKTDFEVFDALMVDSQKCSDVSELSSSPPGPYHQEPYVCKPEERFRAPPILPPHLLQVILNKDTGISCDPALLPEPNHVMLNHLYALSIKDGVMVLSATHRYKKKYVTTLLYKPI
- Sequence (Q9UGJ0 2-569 partner limits assumed): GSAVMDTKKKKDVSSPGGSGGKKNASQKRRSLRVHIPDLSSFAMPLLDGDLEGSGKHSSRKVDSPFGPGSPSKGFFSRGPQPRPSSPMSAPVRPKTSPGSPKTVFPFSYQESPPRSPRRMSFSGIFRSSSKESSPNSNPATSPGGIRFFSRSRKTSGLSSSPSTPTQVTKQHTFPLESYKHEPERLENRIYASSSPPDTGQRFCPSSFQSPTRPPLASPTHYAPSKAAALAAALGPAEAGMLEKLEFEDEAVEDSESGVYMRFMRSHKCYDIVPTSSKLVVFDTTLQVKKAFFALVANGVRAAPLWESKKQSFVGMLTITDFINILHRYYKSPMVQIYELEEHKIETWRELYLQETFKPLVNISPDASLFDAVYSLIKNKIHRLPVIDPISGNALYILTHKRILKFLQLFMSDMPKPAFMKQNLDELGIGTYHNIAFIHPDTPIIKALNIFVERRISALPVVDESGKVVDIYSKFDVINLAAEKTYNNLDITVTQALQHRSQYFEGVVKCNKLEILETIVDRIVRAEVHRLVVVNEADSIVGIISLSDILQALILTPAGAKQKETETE
- assay.comment: AMPK in vitro activation assay (HTRF)
- stated.conditions: HTRF, recombinant human α2β1γ2 AMPK, 200 μM ATP, biotinylated ACC-CREBp peptide; repeat determinations on separate lines
pEC50: −log10 of the molar value.
Could you label it condition met if measured pEC50 is 8 or higher, and condition not met otherwise?

Request: Quick check, pEC50 >= 8? Cc1cc(C(O)=C2C(=O)Nc3cc(Cl)c(-c4ccc(OCC5COC5)cc4)cc32)on1
Response: condition not met

Request: Repeat for the following molecule: O=C1Nc2cc(Cl)c(-c3ccc(N4CCOCC4)cc3)cc2C1=C(O)c1cccc(Cl)c1
Response: condition not met

Request: Repeat for the following molecule: Cc1cc(C(O)=C2C(=O)Nc3cc(Cl)c(-c4ccc(OCC5CCO5)cc4)cc32)on1 (stereo not shown)
Response: condition not met

Request: Repeat for the following molecule: COc1cc(C(O)=C2C(=O)Nc3cc(Cl)c(-c4ccc(-c5cccc(OC)c5O)cc4)cc32)on1
Response: condition met

Request: Repeat for the following molecule: O=C1Nc2cc(Cl)c(-c3ccc(C4(CO)CC4)cc3)cc2C1=C(O)c1ccc(F)c(F)c1
Response: condition met

Request: Repeat for the following molecule: O=C1Nc2cc(Cl)c(-c3ccc(C4(CO)CC4)cc3)cc2C1=C(O)c1cc(F)cc(F)c1
Response: condition met

Request: Repeat for the following molecule: Cc1cc(C(O)=C2C(=O)Nc3cc(Cl)c(-c4ccc(OC(F)(F)F)cc4)cc32)on1
Response: condition not met

Request: Repeat for the following molecule: COc1cc(C(O)=C2C(=O)Nc3cc(Cl)c(-c4ccc(C5CC(OC)C5)cc4)cc32)on1 (stereo not shown)
Response: condition not met

Request: Repeat for the following molecule: O=C1Nc2cc(Cl)c(-c3ccc(C4(CO)CC4)cc3)cc2C1=C(O)c1cccc(F)c1
Response: condition met

---

Give Emax for every item shown.
- test.target: recombinant human AMPK complex, containing α2β1γ2 (Homo sapiens, UniProt P54646+Q9Y478)
- Construct: hsAMPKα2-552-His, hsAMPKβ1-2-270 and hsAMPKγ-2-569 respectively; hsAMPKβ1-2-270; hsAMPKγ-2-569; His (C); made in house; host or cells: Spodoptera frugiperda Sf21 (baculovirus)
- assay.comment: AMPK in vitro activation assay (HTRF)
- Format: biochemical
- stated.conditions: potentiation of AMPK activity as percent over the basal signal (without compound)
Counter-ions that a name gives are not always drawn.
A complete answer gives the number followed by the unit.

Request: Field request: Emax | item: Cc1cc(C(O)=C2C(=O)Nc3cc(Cl)c(-c4ccc(OCCCN5CCN(C)CC5)cc4)cc32)on1 [Compound 70, hydrochloride]
Response: 142%

Request: Repeat for the following molecule: COc1ccc(C(O)=C2C(=O)Nc3cc(Cl)c(-c4ccc(N5CCOCC5)cc4)cc32)nc1
Response: 227%

Request: Repeat for the following molecule: Cc1cc(C(O)=C2C(=O)Nc3cc(Cl)c(-c4ccc(N5CCN(C)CC5)cc4)cc32)on1 [Compound 74, hydrochloride]
Response: 213%

Request: Repeat for the following molecule: CCOc1ccc(-c2cc3c(cc2Cl)NC(=O)C3=C(O)c2cc(C)no2)cc1
Response: 192%

Request: Repeat for the following molecule: COc1cc(C(O)=C2C(=O)Nc3cc(Cl)c(-c4ccc(C5=CCOCC5)cc4)cc32)on1
Response: 192%

Request: Repeat for the following molecule: COc1cc(F)c(C(O)=C2C(=O)Nc3cc(Cl)c(-c4ccc(C5CC(O)C5)cc4)cc32)cc1F (stereo not shown)
Response: 180%

Request: Repeat for the following molecule: COc1cc(C(O)=C2C(=O)Nc3cc(Cl)c(-c4ccc(N(C)C)cc4F)cc32)on1
Response: 158%

Request: Repeat for the following molecule: COc1cc(C(O)=C2C(=O)Nc3cc(Cl)c(-c4ccc(N5CCC(O)C5)cc4)cc32)on1 (stereo not shown)
Response: 229%

Request: Repeat for the following molecule: Cc1cc(C(O)=C2C(=O)Nc3cc(Cl)c(-c4ccc(OC(F)(F)F)cc4)cc32)on1
Response: 212%

Request: Repeat for the following molecule: O=C1Nc2cc(Cl)c(-c3ccc(N4CCOCC4)cc3)cc2C1=C(O)c1cccc(C(F)F)c1
Response: 168%
